These entries and their values trace back to patent US20220112288A1.

SYSTEM_NAME: T1, human CD4 on cells (SKW3 cells; human PBMCs) (human, UniProt P01730 26-458)
T1 construct: whole, on cells; SKW3 CD4 knockout cells served as the negative cell line; also called hCD4
EXPERIMENT_NOTES: FACS primary screen, non-clonal hybridoma supernatant, SKW3 vs SKW3 CD4 knockout cells, anti-mouse Fc A647
ENDPOINT_LABEL: SKW3 WT vs KO anti-mFc-647 (fold)
Just the number please, in fold, no unit attached.

Example entries begin here.
INSERT INTO results (binder, endpoint_label, assay_result) VALUES
  ('75110_12K21A (antibody, V domains shown, Tested as non-clonal AlivaMab Mouse Kappa hybridoma supernatant: human variable domains and human kappa, mouse Fc) VH: QVQLQQWGAGLLKPSETLSLTCAVSGGSFSGYYWSWIRQPPGKGLEWIGEINHSGSTNCNPSLKSRVTISVDTSNNQFSLKLSSVTAADTAVYYCARVLNYFDYWGQGTLVTVSS VL: DIQMTQSPSSVSASVGDRVTITCRASPDIANWLAWYQQKPGKAPELLIYAASSLQSGVPSRFSGSGSGTDFTLTISSLQPEDFATYFCQQANSFPLTFGGGTKVESK', 'SKW3 WT vs KO anti-mFc-647', 6.6),
  ('75110_05K11A (antibody, IgG1, V domains shown, Tested as non-clonal AlivaMab Mouse Kappa hybridoma supernatant: human variable domains and human kappa, mouse Fc) VH: EVQLVESGGGLVQPGGSLRLSCAASGFTFSSYDMHWVRQPTGKGLEWVSTIGTAGDTYYPASVKGRFTISRENAKNSLYLQMNSLRAGDTAVYYCARGGFYYYGMDVWGQGTTVTVSS VL: EIVLTQSPGTLSLSPGERVTLSCRASQSVSNTYLAWYQQKPGQAPRLLIYGASSRATGIPDRFSGSGSGTDFTLTISRLEPEDFVVYYCQQHGSSPFTFGPGTKVDIK', 'SKW3 WT vs KO anti-mFc-647', 4);

Reported SKW3 WT vs KO anti-mFc-647 for 75110_04F22A (antibody, V domains shown, Tested as non-clonal AlivaMab Mouse Kappa hybridoma supernatant: human variable domains and human kappa, mouse Fc) VH: EVQLVESGGGLVQPGGSLRLSCAASGFTFSSYDIHWVRQATGKGLEWVSTIGTAGDTYYPGSVKGRFTISRENAKNSLYLQMNSLRAGDTAVYYCARGGYYYYGMDVWGQGTTVTVSS VL: EIVLTQSPGTLSLSPGERATLSCRASQSVYSSYLAWYQQKPGQAPRLLIYGASSRATGIPDRFSGSGSGTDFTLTISRLEPEDFAVYYCQQFGTSPFTFGPGTKVDIK : what is it? 3.6

Repeat for the following binder: 75110_13P21A (antibody, IgG1, V domains shown, Tested as non-clonal AlivaMab Mouse Kappa hybridoma supernatant: human variable domains and human kappa, mouse Fc) VH: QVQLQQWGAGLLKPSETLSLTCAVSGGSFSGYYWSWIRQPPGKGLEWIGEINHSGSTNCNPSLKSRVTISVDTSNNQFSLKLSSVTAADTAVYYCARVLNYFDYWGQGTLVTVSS VL: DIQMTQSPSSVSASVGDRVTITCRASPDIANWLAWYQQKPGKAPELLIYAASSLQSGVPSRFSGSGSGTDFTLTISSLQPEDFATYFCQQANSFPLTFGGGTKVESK 5.8

Repeat for the following binder: 75110_01G11A (antibody, IgG1, V domains shown, Tested as non-clonal AlivaMab Mouse Kappa hybridoma supernatant: human variable domains and human kappa, mouse Fc) VH: EVQLVESGGGLVQPGGSLRLSCAASGFTFSSYDMHWVRQATGKGLEWVSTIGTAGDTYYPGSVKGRFTISRENARNSLFLQMNSLRAGDTAVYYCARGGDYYYGMDVWGQGTTVTVSS VL: EIVLTQSPGTLSLFPGERATLSCRASQNTYSSYLAWYQQKPGQAPRLLIYGASNRATGIPDRFSGSGSGTDFTLTISRLEPEDFAVYYCQQHGTSPFTFGPGTKVDIK 3.4
